Entries and their T/C
# Test system: L1210 leukemia ip in BDF1 mice, survival T/C
# PROTOCOL NOTES: NCI In Vivo Anticancer Drug Screen. Data for tumor model L1210 Leukemia (intraperitoneal) in B6D2F1 (BDF1) mice
# DETAILS: endpoint: mean survival time; dose: 100.0 mg/kg/injection; schedule: Q01DX009 (ip); vehicle: saline; higher = longer survival
Inconclusive results and toxic doses are left out.

# COMPOUND, T/C
data = [
    ("CNC(=O)NCc1cccnc1", "111 % of control"),
    ("C#CC(C)(C)OCC1CO1 (configuration not stated)", "102 % of control"),
    ("CCN(CC)C(C)COC(=O)c1cc(=O)n(C)c2ccccc12 (configuration not stated)", "98 % of control"),
    ("Cc1ccccc1C(=O)c1ccccc1C(=O)c1ccccc1", "97 % of control"),
    ("NC(=O)NC(=O)c1ccccc1", "96 % of control"),
    ("CCOC(=O)c1csc(CCNC(=O)c2ccccc2)n1", "108 % of control"),
    ("CCCN(C(=O)N([Si](C)(C)C)S(=O)(=O)c1ccc(Cl)cc1)[Si](C)(C)C", "96 % of control"),
]

====

Recorded measurements of T/C, one per entry
# System: L1210 leukemia ip in BDF1 mice, survival T/C
# PROTOCOL NOTES: NCI In Vivo Anticancer Drug Screen. Data for tumor model L1210 Leukemia (intraperitoneal) in B6D2F1 (BDF1) mice
# DETAILS: endpoint: mean survival time; dose: 100.0 mg/kg/injection; schedule: Q04DX002 (ip); vehicle: Klucel (hydroxypropylcellulose) (HPC); higher = longer survival
# Protocol: The antitumor activity of compounds was measured in mice bearing transplantable tumors. Survival or tumor size were measured and the results are expressed as the measurement made in the treated group (T) divided by the measurement made in the vehicle treated control group (C). The tumor model used in this assay is L1210 Leukemia (intraperitoneal) in B6D2F1 (BDF1) mice
Toxic doses and inconclusive results are not listed.
MEASURED ATTRIBUTE: T/C

# COMPOUND, MEASURED RESULT
measured = [
    ("C=COCCN1C(=O)c2ccccc2C1=O", "102 % of control"),
    ("O=C1COc2ccc(F)cc2N1", "98 % of control"),
    ("CS(=O)(=O)OC1COC(c2ccccc2)OC1C1OC(c2ccccc2)OCC1OS(C)(=O)=O (stereo unspecified)", "98 % of control"),
    ("COC(=O)C(=O)CC(=O)c1ccc(Cl)cc1", "100 % of control"),
    ("COC1OC2COc3ccccc3OC2C2C1N2C(C)=O (stereo unspecified)", "113 % of control"),
    ("COc1ccc(C(=O)/C=C2\\C(=O)Nc3ccc(Br)cc32)cc1", "107 % of control"),
]

====

T/C values, listed per item
# Tested on: L1210 leukemia ip in BDF1 mice, survival T/C
# PROTOCOL NOTES: NCI In Vivo Anticancer Drug Screen. Data for tumor model L1210 Leukemia (intraperitoneal) in B6D2F1 (BDF1) mice
# DETAILS: endpoint: mean survival time; dose: 200.0 mg/kg/injection; schedule: Q04DX003 (ip); vehicle: saline with Tween-80; higher = longer survival
Inconclusive results and toxic doses are left out.

# MOLECULE, T/C
rows = [
    ("c1ccc2cc3c(cc2c1)Nc1cc2ccccc2cc1N3", "101 % of control"),
    ("CCOC(=O)c1cnn2c(=O)[nH]cnc12", "109 % of control"),
    ("CCOC(=O)CC/C(=C/c1cccc2ccccc12)[N+](=O)[O-]", "94 % of control"),
    ("O=[N+]([O-])c1cccc2c1CCCC2", "105 % of control"),
    ("CCSC(=O)N1c2ccc(OC)cc2C=CC1C#N (stereo unspecified)", "97 % of control"),
    ("C=CCN(CC=C)c1nc(Oc2ccccc2)nc(Oc2ccccc2)n1", "92 % of control"),
    ("OC/C(=C\\c1ccccc1)c1ccccc1", "94 % of control"),
    ("Nc1ccccc1C(=O)c1ccccc1", "95 % of control"),
    ("O=Cc1cc([N+](=O)[O-])ccc1OCC(=O)O", "92 % of control"),
    ("CCOc1cc(C(F)(F)F)nc2c3c(cc(OC)c12)CCCN3CC", "100 % of control"),
    ("Cc1ccc2[nH]c(=O)cc(C)c2c1", "98 % of control"),
]
